The reported numbers originate from paper PMC5540273.

Catalogue of compounds with associated %Inh
Test system: BMPR2
condition info: concentration: 1 μM, replicates: in singlicate; n = 1;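 further: KINOMEscan kinase panel screen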

compound | %Inh [%]
Nc1nccc(-c2c(-c3ccc(F)cc3)ncn2C2CCN(CC(F)(F)F)CC2)n1 [SB-236560] | 45
NCC(NC(=O)c1cc(-c2cn[nH]c2)c(-c2ccnc3[nH]ccc23)s1)c1ccccc1.O=C(O)C(F)(F)F.O=C(O)C(F)(F)F (stereo not drawn) [GSK1325775] | 4
CSc1ccc(-c2cc3ncnc(SCC(=O)O)c3s2)cc1 | 0
CNc1ncnc2[nH]ncc12 [SKF-18355] | 35
CC(C)Oc1ccc2c(-c3ccnc(Nc4ccc(N5CCN(C)CC5)cc4)n3)cnn2n1 [GW696155] | 19
CC(=O)Nc1ccc(COc2ccc(Nc3ccnc4cc(-c5ccccn5)ccc34)cc2)cc1.Cl [GW440148] | 1
O=C(Nc1n[nH]c2cc(-c3cccc(F)c3)ccc12)C1CC1 [SB-735464] | 28
Cn1ccc2ncnc(Oc3ccc(NC(=O)Nc4ccncc4)c(Cl)c3)c21 | 20
N#Cc1ccc(-c2cc(-c3c[nH]nc3-c3ccccn3)ccn2)cc1 [GW693028] | 6

====

Catalogue of compounds with associated %Inh
System: PDGFRA
condition info: concentration: 1 μM, replicates: in singlicate; n = 1
quantity kind: %Inh (%)

compound | endpoint value
Cc1nnc(-c2ccc3ncc(-c4ccc(S(C)=O)cc4)n3c2)o1 (centres unmarked) | 42
O=C(Nc1n[nH]c2cc(-c3cccc(F)c3)ccc12)C1CC1 [SB-735464] | 42
Nc1nccc(-c2c(-c3ccc(F)cc3)ncn2C2CCN(CC(F)(F)F)CC2)n1 [SB-236560] | 3
CNc1ncnc2[nH]ncc12 [SKF-18355] | 0
Nc1nc(-c2ccc3c(N)n[nH]c3c2)cc(N2CCCC2)n1 [GSK2227430] | 0

====

Catalogue of molecules with associated %Inh
Tested on: MLCK
Construct: gene MYLK3
condition info: concentration: 1 μM, replicates: in singlicate; n = 1

molecule | result units | %Inh
Cc1cccc(-c2nc(-c3ccc(S(C)(=O)=O)cc3)sc2-c2ccncc2)c1 | % | 0
Cc1ccc(C(=O)NCC(N)=O)cc1-n1c(C)cc(OCc2ccc(F)cc2F)c(Br)c1=O | % | 0
O=c1cc(N2CCOCC2)nc2n(Cc3cccc4ccccc34)ccn12 | % | 0
COc1ccc(Nc2nccc(N3CCC(NC(=O)Nc4cc(C)ccc4C)C3)n2)cc1 (stereo not drawn) | % | 11
COc1ccc(Nc2ncc(C#N)c(Nc3ccccc3C(N)=O)n2)cc1N1CCN(C)CC1.Cl | % | 99.7
Cc1nnc(-c2ccc3occ(-c4ccc(C(C)O)cc4)c3c2)o1 (stereo not drawn) | % | 14
Cc1cn2c(=O)cc(N3CCOCC3)nc2n1Cc1cccc(Cl)c1Cl | % | 0
O=C1NC(=O)C(N2CCc3ccccc32)=C1c1cccc(Cl)c1 | % | 0
N#Cc1c(N2CCOCC2)sc(-c2ccn[nH]2)c1-c1ccc(Cl)cc1 | % | 0

====

Catalogue of compounds with associated %Inh
Test system: YANK3
Construct: gene STK32C
condition info: concentration: 1 μM, replicates: in singlicate; n = 1
quantity kind: %Inh

compound | system tested | endpoint value
COc1cc(Nc2nccc(N3CCC(NC(=O)c4cccc(NC(C)=O)c4)C3)n2)cc(OC)c1OC (stereo not drawn) | YANK3 | 0%
CCc1nc(-c2cccc(C)c2)c(-c2ccnc(NCc3ccccc3)c2)s1 | YANK3 | 19%
Cc1c(Cn2c(C)nn3c(=O)cc(N4CCOC(C)C4)nc23)cccc1C(F)(F)F (stereo not drawn) | YANK3 | 13%
COCCNC(=O)c1ccc(-c2cc(C(=O)NC3CC3)cc(F)c2C)cc1 | YANK3 | 22%
CN1c2ccc(NCc3ccc(F)cc3)cc2-c2c(cnn2C)S1(=O)=O | YANK3 | 0%
O=C(Nc1cccc(-c2nn3ncccc3c2-c2ccnc(Nc3cccc(C(F)(F)F)c3)n2)c1)c1c(F)cccc1F | YANK3 | 10%
O=c1cc(N2CCOCC2)nc2n(Cc3cccc4ccccc34)ccn12 | YANK3 | 38%
Nc1nc(-c2ccc3c(N)n[nH]c3c2)cc(N2CCCC2)n1 | YANK3 | 0%
N#Cc1c(N2CCOCC2)sc(-c2ccn[nH]2)c1-c1ccc(Cl)cc1 | YANK3 | 16%
O=c1cc(N2CCOCC2)nc2n(Cc3cccc(F)c3)ccn12 | YANK3 | 22%
NS(=O)(=O)c1cccc(-c2ccc3nccc(-c4cccc(S(N)(=O)=O)c4)c3c2)c1 | YANK3 | 0%
Cc1cn2c(=O)cc(N3CCOCC3)nc2n1Cc1cccc(Cl)c1Cl | YANK3 | 34%
